Target Or Test System: Rat Liver Cytosolic Phosphoenolpyruvate Carboxykinase (Rattus norvegicus)
Sequence (P07379 1-622): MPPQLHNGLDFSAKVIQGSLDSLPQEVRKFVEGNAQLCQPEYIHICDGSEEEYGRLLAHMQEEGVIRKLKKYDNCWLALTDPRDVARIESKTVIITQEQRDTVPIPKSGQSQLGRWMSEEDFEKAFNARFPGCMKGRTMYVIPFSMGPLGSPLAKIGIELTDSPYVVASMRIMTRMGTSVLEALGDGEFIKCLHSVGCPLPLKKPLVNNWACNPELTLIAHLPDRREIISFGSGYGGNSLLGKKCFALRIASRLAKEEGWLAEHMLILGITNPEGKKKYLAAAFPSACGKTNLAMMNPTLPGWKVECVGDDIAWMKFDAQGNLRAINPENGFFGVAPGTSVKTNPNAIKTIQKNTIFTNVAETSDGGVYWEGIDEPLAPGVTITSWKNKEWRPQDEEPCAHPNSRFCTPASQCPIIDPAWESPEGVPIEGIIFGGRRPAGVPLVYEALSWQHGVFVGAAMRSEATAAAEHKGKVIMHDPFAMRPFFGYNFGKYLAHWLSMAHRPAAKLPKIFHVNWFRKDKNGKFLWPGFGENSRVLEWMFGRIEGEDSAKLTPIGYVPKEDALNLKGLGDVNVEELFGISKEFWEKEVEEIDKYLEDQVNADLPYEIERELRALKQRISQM
Protocol Details: Continuous spectrophotometric PEPCK inhibition assay coupled to malate dehydrogenase (preliminary screen, inhibition patterns, Dixon plots)
Cond: from Dixon plots using two PEP concentrations; listed as 1,2-Ethanedisulfonate (32)
Quantity Kind: pKi
Answers are plain numbers, as −log10 of the molar value.

The molecule listed as O=S(=O)(O)CCS(=O)(=O)O [Compound 32, 1,2-Ethanedisulfonate] has a reported pKi of 2.52

###

Target Or Test System: Rat Liver Cytosolic Phosphoenolpyruvate Carboxykinase (Rattus norvegicus)
Protocol Details: Continuous spectrophotometric PEPCK inhibition assay coupled to malate dehydrogenase (preliminary screen, inhibition patterns, Dixon plots)
Cond: analogue 6 mM, PEP 40 μM; preliminary screen, average of two PEPCK preparations
Counter-ions that a name gives are not always drawn. Marks after values point to notes of the source that are not given here.
Quantity Kind: % Activity Remaining

Reference set (3 entries):
Compound	Quantity Kind	Reported
O=S(=O)(O)CCS(=O)(=O)O [Compound 32, 1,2-Ethanedisulfonate]	% Activity Remaining	42^e %
O=C(O)/C=C\C(=O)O [Compound 5, Maleate]	% Activity Remaining	52^e %
O=C(O)/C=C/C(=O)O [Compound 6, Fumarate]	% Activity Remaining	83^e %

The compound listed as O=P(O)(O)CCP(=O)(O)O [Compound 30, 1,2-Ethanediphosphonate] has a reported % Activity Remaining of 96^e %

###

Target Or Test System: Rat Liver Cytosolic Phosphoenolpyruvate Carboxykinase (Rattus norvegicus)
Protocol Details: Continuous spectrophotometric PEPCK inhibition assay coupled to malate dehydrogenase (preliminary screen, inhibition patterns, Dixon plots)
Quantity Kind: pKi
Answers are plain numbers, as −log10 of the molar value.

Form field, pKi with Rat Liver Cytosolic Phosphoenolpyruvate Carboxykinase (Rattus norvegicus), item O=P(O)(O)OP(=O)(O)O [Compound 28, Pyrophosphate] : 3.76

###

Target Or Test System: Rat Liver Cytosolic Phosphoenolpyruvate Carboxykinase (Rattus norvegicus, UniProt P07379)
Protocol Details: Continuous spectrophotometric PEPCK inhibition assay coupled to malate dehydrogenase (preliminary screen, inhibition patterns, Dixon plots);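 further: PEPCK activity followed continuously via malate dehydrogenase coupling, where OAA reduction consumes NADH, seen as falling absorbance at 340 nm, run at 35 °C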
Cond: analogue 3 mM, PEP 40 μM; preliminary screen, average of two PEPCK preparations
Marks after values point to notes of the source that are not given here.
Quantity Kind: % Activity Remaining

Reference set (4 entries):
Molecule	% Activity Remaining
NC(CCP(=O)(O)O)C(=O)O (centres unmarked) [Compound 19, 2-Amino-4-phosphonobutyrate]	104^c %
C[C@@H]1O[C@@H]1P(=O)(O)O [Compound 33, Phosphomycin]	108^c %
C=C(CC(=O)O)C(=O)O [Compound 7, Itaconate]	91^c %
N[C@@H](CS(=O)(=O)O)C(=O)O [Compound 26, Cysteic acid]	76^c %

For each of the items listed, what is its % Activity Remaining?
1. CC(C)(C(=O)O)S(=O)(=O)O [Compound 24, 2,2-Dimethylsulfoacetate]
2. O=C(O)[C@@H](CO)OP(=O)(O)O [Compound 14, 2-D-Phosphoglycerate]
3. O=C(O)[C@H](O)[C@@H](O)[C@H](O)[C@H](O)COP(=O)(O)O [Compound 16, 6-phosphogluconate]
4. O=[N+]([O-])c1ccc(OP(=O)(O)O)cc1 [Compound 35, p-Nitrophenylphosphate]

Output line:
1. 65^c %
2. 110^c %
3. 117^c %
4. 103^c %

###

Target Or Test System: Rat Liver Cytosolic Phosphoenolpyruvate Carboxykinase (Rattus norvegicus)
Sequence (P07379 1-622): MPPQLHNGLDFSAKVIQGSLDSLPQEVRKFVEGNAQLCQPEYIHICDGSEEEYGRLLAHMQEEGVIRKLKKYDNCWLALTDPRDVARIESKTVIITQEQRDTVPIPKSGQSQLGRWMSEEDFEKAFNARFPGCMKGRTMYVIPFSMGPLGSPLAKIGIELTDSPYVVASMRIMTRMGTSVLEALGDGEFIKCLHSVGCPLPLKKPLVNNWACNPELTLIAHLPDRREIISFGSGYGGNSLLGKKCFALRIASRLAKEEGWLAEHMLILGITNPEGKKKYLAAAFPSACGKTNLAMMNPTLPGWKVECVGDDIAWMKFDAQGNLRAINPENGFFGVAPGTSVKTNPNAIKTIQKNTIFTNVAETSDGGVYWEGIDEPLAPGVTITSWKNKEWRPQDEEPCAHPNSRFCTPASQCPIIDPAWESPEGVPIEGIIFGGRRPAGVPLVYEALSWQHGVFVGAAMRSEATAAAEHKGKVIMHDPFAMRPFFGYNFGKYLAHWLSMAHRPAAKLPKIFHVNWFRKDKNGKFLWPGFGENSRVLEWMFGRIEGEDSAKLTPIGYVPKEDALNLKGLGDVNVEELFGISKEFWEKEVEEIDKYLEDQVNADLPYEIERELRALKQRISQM
Protocol Details: Continuous spectrophotometric PEPCK inhibition assay coupled to malate dehydrogenase (preliminary screen, inhibition patterns, Dixon plots)
Cond: read-out: Ki, slope effect (Kis)
Quantity Kind: Ki (µM)
Give bare numbers, in µM.

The molecule listed as O=P(O)(O)OP(=O)(O)O [Compound 28, Pyrophosphate] has a reported Ki of 34

###

Kindly state % Activity Remaining for each of the entries shown.
Target Or Test System: Rat Liver Cytosolic Phosphoenolpyruvate Carboxykinase (Rattus norvegicus)
Protocol Details: Continuous spectrophotometric PEPCK inhibition assay coupled to malate dehydrogenase (preliminary screen, inhibition patterns, Dixon plots)
Marks after values point to notes of the source that are not given here.

Reference set (3 entries):
Molecule	% Activity Remaining
O=P(O)(O)OP(=O)(O)O [Compound 28, Pyrophosphate]	22^f %
O=C(O)C1CCCC1C(=O)O (stereo not shown) [Compound 8, 1,2-Cyclopentanedicarboxylate]	91^c %
O=C(O)CC(C(=O)O)S(=O)(=O)O (stereo not shown) [Compound 4, Sulfosuccinate]	55^c %

Please turn your attention to the following entry.
The molecule listed as NC(CCCP(=O)(O)O)C(=O)O (stereo not shown) [Compound 20, 2-Amino-5-phosphonovalerate] has a reported % Activity Remaining of 98^f %

###

Kindly state % Activity Remaining for each of the entries shown.
Target Or Test System: Rat Liver Cytosolic Phosphoenolpyruvate Carboxykinase (Rattus norvegicus, UniProt P07379)
Sequence (P07379 1-622): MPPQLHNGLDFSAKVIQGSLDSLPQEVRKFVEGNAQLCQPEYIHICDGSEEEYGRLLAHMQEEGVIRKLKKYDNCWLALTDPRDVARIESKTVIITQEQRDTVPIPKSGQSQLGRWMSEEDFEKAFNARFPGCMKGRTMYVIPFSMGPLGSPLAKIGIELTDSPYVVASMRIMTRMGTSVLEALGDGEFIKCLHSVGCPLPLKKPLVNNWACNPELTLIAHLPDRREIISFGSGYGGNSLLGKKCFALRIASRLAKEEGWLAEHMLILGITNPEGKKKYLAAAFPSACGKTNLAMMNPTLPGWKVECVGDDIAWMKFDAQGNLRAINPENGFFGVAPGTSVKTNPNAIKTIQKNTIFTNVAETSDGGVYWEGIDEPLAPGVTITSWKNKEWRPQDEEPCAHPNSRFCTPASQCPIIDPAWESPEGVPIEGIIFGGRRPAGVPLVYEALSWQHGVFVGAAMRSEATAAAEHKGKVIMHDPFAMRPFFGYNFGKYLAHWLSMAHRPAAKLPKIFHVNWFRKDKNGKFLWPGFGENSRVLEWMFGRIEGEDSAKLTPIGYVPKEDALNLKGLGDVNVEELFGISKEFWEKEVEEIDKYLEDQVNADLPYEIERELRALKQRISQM
Protocol Details: Continuous spectrophotometric PEPCK inhibition assay coupled to malate dehydrogenase (preliminary screen, inhibition patterns, Dixon plots)
Cond: analogue 3 mM, PEP 40 μM; preliminary screen, average of two PEPCK preparations
Marks after values point to notes of the source that are not given here.

Reference set (2 entries):
Compound	Reported
O=C(O)CP(=O)(O)O [Compound 11, Phosphonoacetate]	108^c %
NC(CP(=O)(O)O)C(=O)O (stereo not drawn) [Compound 18, 2-Amino-3-phosphonopropionate]	94^c %

For each of the items listed, what is its % Activity Remaining?
1. O=C(O)CC(=O)O [Compound 2, Malonate]
2. O=C(O)CNCP(=O)(O)O
3. N[C@@H](CS(=O)O)C(=O)O
4. N[C@@H](CC(=O)O)C(=O)O [Compound 9, L-Aspartate]
5. C=C(CP(=O)(O)O)C(=O)O [Compound 15, 2-(Phosphonomethyl)acrylate]
6. O=C(O)CCC(=O)O [Compound 3, Succinate]

Output line:
102^c %
104^c %
105^c %
112^c %
92^c %
91^c %

The compound listed as O=C(O)CCS(=O)(=O)O [Compound 25, 3-Sulfopropionate] has a reported % Activity Remaining of 69^c %

// provenance: patent US20110008461A1
